# Measurement Protocol: NCI Yeast Anticancer Drug Screen. Data for the CLN2oe strain (AID 163);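 note: 0% = growth of vehicle-only control cultures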
# Measurement Context: S. cerevisiae CLN2oe strain, at 33.0 µM
Compounds without any hit were thinned out: in the full panel of roughly 79,000, 15% have a hit. The source made the active and inactive calls. Cut-off read from the data, not from the text of the source: active = growth inhibition above about 70%; inactive = the rest.
Valid outcomes are listed here; reply with one: active, inactive

Use these answered entries as a reference point.
CCCCc1nnc(NS(=O)(=O)c2ccc(C)cc2)s1	inactive
O=C1OC(C2=CC(=O)c3ccccc3C2=O)C(Cl)=C1Cl (stereo unspecified)	inactive
CC(C)(C)N=C(NO)c1ccccc1	inactive

### Prompt Assay outcome for O=C1C=C(Cl)C(=O)C(c2ccc(Cl)cc2)=C1 : what was it?
### Response active

### Prompt Assay outcome for O=C1Nc2ccc(Br)cc2C1=Nc1ccc2c(c1)OCO2 : what was it?
### Response inactive

### Prompt Assay outcome for Cc1ccc(NCCNCCO)c2c(=O)c3cc(O)ccc3sc12 : what was it?
### Response inactive

###

# Measurement Protocol: NCI Yeast Anticancer Drug Screen. Data for the sgs1 strain (AID 173);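 note: 0% = growth of vehicle-only control cultures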
# Measurement Context: S. cerevisiae sgs1 mutant, at 1.2 µM, stronger effect = higher value
This is part of a sample that, as a whole, favours compounds with a hit. Of some 79,000 tested, about 15% had one in any assay.
Measurement Kind: growth inhibition (%)
Provide the reading as a plain figure in %.

// worked examples, growth inhibition included
Cc1ccc(Sc2ccccc2N)cc1	8
Cc1cc(S(=O)(=O)Nc2nnc3cnc4ccccc4n23)c(S)cc1Cl	-2

### Prompt Look up growth inhibition of O=C(CC(=O)n1nc(-c2ccccc2)c(N=Nc2ccc(Cl)cc2)c1-c1ccccc1)Nc1cccc(Cl)c1 and report it.
### Response -4

### Prompt Look up growth inhibition of CC(C)c1ccc(NC(=S)NC(=O)c2ccccc2)cc1 and report it.
### Response -23

### Prompt Look up growth inhibition of c1ccc2[nH]c(-c3cscn3)nc2c1 and report it.
### Response -1

### Prompt Look up growth inhibition of Clc1ccc2c(c1)N(CCCN1CCCC13CCCCC3)c1ccccc1S2 and report it.
### Response -2

### Prompt Look up growth inhibition of Cc1nc(-c2cc3cc([N+](=O)[O-])ccc3oc2=O)cs1 and report it.
### Response 5

### Prompt Look up growth inhibition of Cc1ccc(N=Nc2ccc(O)c(=O)cc2)cc1 and report it.
### Response 7

### Prompt Look up growth inhibition of C[C@@](O)(/C=C/[C@H]1CC=CC(=O)O1)[C@@H](C[C@@H](O)\C=C/C=C\C=C\CO)OP(=O)(O)O and report it.
### Response 33

### Prompt Look up growth inhibition of CCCCCCCCCCCC1=NCCO1 and report it.
### Response 1

### Prompt Look up growth inhibition of Cc1nc2c(Br)cc(Br)cc2c(=O)n1-c1ccccc1NC1OCC(O)C(O)C1O (centres undefined) and report it.
### Response 2

### Prompt Look up growth inhibition of CCCCCCCCCCCCCCCCCC(=O)NCCCN(C)C and report it.
### Response -5

### Prompt Look up growth inhibition of CCOC(=O)c1ccc(NC(=O)O/N=C(/Cl)C(C)C)cc1 and report it.
### Response -3

### Prompt Look up growth inhibition of CN(C)CCNC(=O)c1cccc2cc([N+](=O)[O-])ccc12 and report it.
### Response 16

###

# Measurement Protocol: NCI Yeast Anticancer Drug Screen. Data for the rad50 strain (AID 155);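 note: 0% = growth of vehicle-only cultures of the same strain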
# Measurement Context: S. cerevisiae rad50 strain growth inhibition; at 1.2 µM; stronger effect = higher value
Compounds without any hit were thinned out: in the full panel of roughly 79,000, 15% have a hit.
Measurement Kind: growth inhibition (%)
Provide the reading as a plain figure in %.

// worked examples, growth inhibition included
CN(CCN(C)Cc1ccccc1)Cc1ccccc1	-18
c1ccc2c(c1)sc1c3cnccc3ccc21	12
CCc1cc(O)c(Cl)c(C)c1Cl	-29
c1ccc2c(OCC3CO3)cccc2c1 (configuration not stated)	0
CCCCOC(=O)Nc1ccc(C)c(NC(=O)OCCCC)c1	-5
N#CC1=C(N)N(/N=C/c2ccccc2)C(c2ccccc2)C1(C#N)C#N (configuration not stated)	5

### Prompt Look up growth inhibition of CCOC1Oc2ccccc2-c2nc(N)ncc21 (configuration not stated) and report it.
### Response -2

###

# Measurement Protocol: NCI Yeast Anticancer Drug Screen. Data for the mlh1 rad18 strain (AID 175)
# Measurement Context: S. cerevisiae mlh1 rad18 strain growth inhibition; at 5.0 µM (retest, dose inferred, filed as 0.5); stronger effect = higher value
The panel holds about 79,000 compounds, 15% with a hit somewhere; the sample as a whole holds those more often.
Measurement Kind: growth inhibition (%)
Provide the reading as a plain figure in %.

CC(=O)OC1CCC2(C)C(=CC(C3C=C4CC(OC(C)=O)CCC4(C)C4=C3C3CC5OC6(CCC(C)CO6)C(C)C5C3(C)CC4)C3=C2CCC2(C)C3CC3OC4(CCC(C)CO4)C(C)C32)C1 (stereo not given)	-28
CC(C)(C)c1ccc(NS(=O)(=O)c2ccc(N)cc2)cc1	-5
S=c1sc2c(s1)SCCS2	46
Nc1nc2ccc(NCc3ccc(C(=O)NC(CCC(=O)O)C(=O)O)cc3)cc2c(=O)[nH]1 (stereo not given)	6

Please examine the following record next.
### Prompt Look up growth inhibition of O=C(NNc1ccccc1)c1ccc(Cl)c(Cl)c1 and report it.
### Response 6

###

# Measurement Protocol: NCI Yeast Anticancer Drug Screen. Data for the rad14 strain (AID 159);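 note: 0% = growth of vehicle-treated control cultures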
# Measurement Context: S. cerevisiae rad14 strain growth inhibition; at 100.0 µM
The panel holds about 79,000 compounds, 15% with a hit somewhere; the sample as a whole holds those more often. Active and inactive are the calls of the source. Rule as the data show it: active = growth inhibition above about 70%; inactive = the rest.
Valid outcomes are listed here; reply with one: active, inactive

Use these answered entries as a reference point.
CCc1c(Cl)c(C)cc(O)c1Cl	active
CCCCC(CC)C(=O)[O][Sn]([CH2]CCC)([CH2]CCC)[O]C(=O)C(CC)CCCC (configuration not stated)	active

Below: the item to evaluate.
### Prompt Assay outcome for O=C(COC(=O)c1ccccc1)c1ccc(Br)cc1 : what was it?
### Response active

###

# Measurement Protocol: NCI Yeast Anticancer Drug Screen. Data for the mec2-1 strain (AID 157)
# Measurement Context: S. cerevisiae mec2-1 strain, at 100.0 µM
About 79,000 compounds went through this panel and 15% of them were active in at least one assay; those are over-represented in the sample as a whole. Active and inactive are the calls of the source. Rule as the data show it: active = growth inhibition above about 70%; inactive = the rest.
Valid outcomes are listed here; reply with one: active, inactive

Use these answered entries as a reference point.
CCOC(=N)c1ccc(O)c(OC)c1	inactive
O=C1C(=O)c2ccccc2C(O)=C1C(C1=C(O)c2ccccc2C(=O)C1=O)c1ccc(Cl)cc1	inactive
CCCCCCCCCCCCCCCCOP(=O)(O)OCC(N)C(=O)O (stereo not drawn)	active
O=[N+]([O-])c1cc(S(=O)(=O)Nc2ccccc2)ccc1Nc1ccccc1	active
CN(C)CCNC(=O)c1cccc2cc([N+](=O)[O-])ccc12	active
COc1ccc(C2C3=C(COC3=O)OC(C)(C)Oc3cc4c(cc32)OCO4)cc1OC (stereo not drawn)	active
COc1ccc2[nH]cc([C@@H]3C4CCC(C4)[C@H]3NCc3cccc(CN[C@H]4C5CCC(C5)[C@@H]4c4c[nH]c5ccc(OC)cc45)c3)c2c1	active

Below: the item to evaluate.
### Prompt Assay outcome for CC1OC(O[C@H]2/C=C/C=C/C=C/C=C/C=C/C=C/C=C/[C@H](C)[C@@H](O)[C@@H](C)[C@H](C)OC(=O)C[C@H](O)C[C@H](O)CC[C@@H](O)[C@H](O)C[C@H](O)C[C@]3(O)C[C@H](O)[C@@H](C(=O)O)[C@H](C2)O3)C(O)C(N)C1O (stereo partly drawn) : what was it?
### Response active

###

# Measurement Protocol: NCI Yeast Anticancer Drug Screen. Data for the mec2-1 strain (AID 157)
# Measurement Context: S. cerevisiae mec2-1 strain, at 50.0 µM (retest, dose inferred, filed as 5.0), stronger effect = higher value
# Method: Growth inhibition of yeast strains with defined genetic alterations is measured as a screen for potential anti-cancer activity. Selected strains with alterations in DNA damage repair or cell cycle control were exposed to compounds and growth inhibition was measured relative to vehicle treated controls. The strain used in this assay is mec2-1
This is part of a sample that, as a whole, favours compounds with a hit. Of some 79,000 tested, about 15% had one in any assay.
Measurement Kind: growth inhibition (%)
Provide the reading as a plain figure in %.

O=C(/C=C\c1cccc(C(F)(F)F)c1)c1ccccc1	3

### Prompt Look up growth inhibition of CCOC(=O)c1ccc(NC(=O)O/N=C(/Cl)C(C)C)cc1 and report it.
### Response 95

### Prompt Look up growth inhibition of c1ccc2c(c1)sc1c3cnccc3ccc21 and report it.
### Response -20

### Prompt Look up growth inhibition of O=C(Nc1ccc(Cl)cc1)Nc1nnc2nc(C(C(=O)c3cccc([N+](=O)[O-])c3Cl)c3nc4nnc(NC(=O)Nc5ccc(Cl)cc5)n4[nH]c3=O)c(=O)[nH]n12 and report it.
### Response 10
